Tested on: 786-0 renal
Test: NCI-60 one-dose screen, 48 h
Conditions: 10 µM unless noted
This is part of a sample that, as a whole, favours compounds with a hit. Of some 83,000 tested, about 20% had one in any assay. Activity calls are given as the source filed them. How the source made its calls: active means growth percent below 10; inactive means the rest.
Outcomes: active, inactive

{"columns": ["Compound", "Class assignment"],
 "data": [
  ["Cc1nc(-c2ccccc2)cc2c(O)c(C(=O)N/N=C/c3ccc(N(C)C)cc3)[nH]c(=O)c12", "inactive"],
  ["O=C1Nc2ccc(Cl)cc2/C1=N/N=C/c1c[nH]c2ccccc12", "inactive"],
  ["CCN(CC)CCCNC(=O)c1ccc(N)cc1", "inactive"],
  ["CCC(O)(C(c1ccccc1)c1ccccn1)C(c1ccccc1)c1ccccn1 (stereo not given)", "inactive"],
  ["CC(C)(C)N1CC(OC(N)=O)C1", "inactive"],
  ["O=[N+]([O-])c1ccc(-c2cc3c(Nc4ccc(OCc5cccc(Cl)c5)c(Cl)c4)ncnc3s2)cc1", "inactive"],
  ["COc1ccc(OC)c(/C=C2\\COc3ccc(O)cc3C2=O)c1", "inactive"],
  ["CN(C)CCOC(=O)Nc1ccc(Cl)cc1", "inactive"],
  ["COc1ccc(-c2cc(-c3ccc(Nc4nc(Nc5ccccc5)nc(Nc5ccc(Cl)cc5)n4)cc3)nc(N)c2C#N)cc1", "active"],
  ["C/C(Cc1ccc(Cl)cc1)=C(/c1ccc(Cl)cc1)c1ccc(OCCN(C)C)cc1", "inactive"]
]}

###

Test system: HOP-62 NSCLC
Experiment: NCI-60 one-dose screen, 48 h (100 = growth as untreated, 0 = no growth, -100 = all killed)
Conditions: 10 µM unless noted
This is part of a sample that, as a whole, favours compounds with a hit. Of some 83,000 tested, about 20% had one in any assay.

{"columns": ["Molecule", "growth / %"],
 "data": [
  ["CN(C)c1ccc(C#Cc2c(F)cccc2Cl)cc1", 71.8],
  ["CCCCCCCCN(CCCCCCCC)C(=N)c1ccnc2ccccc12", -85.7],
  ["C/C(=N\\NC(=O)Cn1c(-c2ccc(S(C)(=O)=O)cc2)nc2cc(Cl)ccc21)c1ccc(Cl)cc1", 80.9],
  ["N#Cc1c(NC(=O)c2ccccc2I)sc2c1CCCC2", 42.2],
  ["CCN(CC)N=Nc1nn(C(=O)Nc2ccc(Cc3ccccc3)cc2)c2ccc(Cl)cc12", 86.9],
  ["CS(=O)(=O)c1ccc(-c2[nH]c3ccc(F)cc3c2/C=N/O)cc1", 80.7],
  ["CS(=O)(=O)c1ccc(-c2[nH]c3ccc(F)cc3c2/C=N/NC(N)=S)cc1", 34.2],
  ["C[C@@H]1C(=O)N(C[C@H](Cc2ccccc2)NC(=O)OCc2ccccc2)[C@]1(Cc1ccccc1)C(=O)OC(C)(C)C", 80.2],
  ["CNC(=O)c1cc(Oc2ccc3nc(NC(=O)Nc4cc(C(F)(F)F)cc(C(F)(F)F)c4)sc3c2)ccn1", -70.5],
  ["CS(=O)(=O)c1ccc(-c2nc3cc(Cl)ccc3n2CC(=O)NO)cc1", 97.1],
  ["N=C(N)c1ccc(-c2ccc(-c3ccc(Cl)c(Cl)c3)o2)nc1", 5.09],
  ["Nc1ccc(S(=O)(=O)Nc2ccsc2-c2nc(-c3ccccc3)no2)cc1", 35.8],
  ["CNC=O", 107],
  ["Cc1c(Cl)cccc1NS(=O)(=O)c1ccccc1", 112],
  ["CCCCNC(=O)c1cc(NCc2cc(O)ccc2O)ccc1O", 84.4],
  ["O=c1oc2ccc(Cl)cc2cc1-c1cs/c(=N/N=C\\c2ccc(Cl)cc2)n1/N=C/c1ccc(Cl)cc1", 109],
  ["O=C(Nc1ccccc1Cl)OCCN1CCOCC1", 106],
  ["CCCCNC(=O)NS(=O)(=O)c1ccc(N2N=C(c3ccc(C)cc3C)CC2c2ccc(N(C)C)cc2)cc1 (stereo not given)", 88.6],
  ["Cl.[Pt].[c-]1ccccc1-c1ccccn1.c1ccc(P(c2ccccc2)C([PH+](c2ccccc2)c2ccccc2)[PH+](c2ccccc2)c2ccccc2)cc1", 25.1],
  ["COc1cc(NC(=O)c2cccc(-c3cc(=O)c4c(OC)c(OC)c(OC)cc4o3)c2)cc(OC)c1OC", 37.5],
  ["N#Cc1c(N)nc2c(nnn2-c2cccc(C(F)(F)F)c2)c1N", 80.5],
  ["Cc1ccc(O)c(C(=O)c2ccccc2Cl)c1", 98.3],
  ["Clc1ccc2[nH]c3c(NCCCN4CCOCC4)ncnc3c2c1", 83.5],
  ["CCc1c(C(=O)N[C@@H]2c3cc(Cl)ccc3CC[C@@H]2O)[nH]c(C)c1C(C)=O", 72.1],
  ["CC(C)(C)OC(=O)N1Cc2cc3ccccc3nc2C1CO (stereo not given)", 102],
  ["O=C(CCl)N1c2cccc3cccc(c23)N(C(=O)CCl)C1c1cn(-c2ccccc2)nc1-c1cccc([N+](=O)[O-])c1", 94.5],
  ["COc1cc2oc3cc(C)oc(=O)c3c2cc1OC", 93.2],
  ["CC(=O)Nc1ccc(-c2cc3c(NCc4ccc(F)cc4)ncnc3s2)cc1", 58],
  ["CC1(C)C(=O)/C(=C\\c2cccnc2)C[C@]2(C)[C@H]3CC=C4[C@@H]5C[C@@](C)(C(=O)O)CC[C@]5(C)CC[C@@]4(C)[C@]3(C)CC[C@@H]12", 96.6],
  ["O=C(NCOC(O)C(Cl)(Cl)Cl)NCOC(O)C(Cl)(Cl)Cl (stereo not given)", 91.6],
  ["COc1ccc(-c2cc(-c3ccc(Nc4nc(Nc5ccccc5)nc(Nc5ccc(Cl)cc5)n4)cc3)nc(N)c2C#N)cc1", -31.1],
  ["O=[N+]([O-])c1ccc(-c2cc3c(Nc4ccc(Sc5nc6ccccc6s5)c(Cl)c4)ncnc3s2)cc1", 36.1],
  ["Nc1ccn(C2OC(F)(CO)C(O)C2F)c(=O)n1 (stereo not given)", 17.3],
  ["COc1ccc(/C(C)=C(\\c2ccc(Cl)cc2)c2ccc(OCCN(C)C)cc2)cc1F", 64.8],
  ["CCOC(=O)c1c(C)nc2c(c1N)/C(=C/c1ccc(OC)cc1)C(=O)N2Cc1ccc(F)cc1", -45.3],
  ["O=C(Nc1cccc2[nH]c(C(F)(F)F)nc12)c1cc(Cl)ccc1Cl", 32.1],
  ["CCCCCCCCn1cc(C2=C(c3coc4ccc(OC)cc34)C(=O)NC2=O)c2ccccc21", 116],
  ["Cc1ccccc1NC(=O)CN(C)C", 97.9],
  ["Cc1nc(Nc2cccc(NC(=O)Nc3ccc(Cl)cc3)c2)c2ccccc2n1", 107],
  ["Cc1ccc(S(=O)(=O)N(CC[C@@H]2C[C@H]2c2cc3ccccc3o2)C(=O)NC2CCCCC2)cc1", 93.1]
]}

###

Test system: SK-MEL-5 melanoma
Assay: NCI-60 one-dose screen, 48 h (100 = growth as untreated, 0 = no growth, -100 = all killed)
Conditions: 10 µM unless noted
About 83,000 compounds went through this panel and 20% of them were active in at least one assay; those are over-represented in the sample as a whole.

{"columns": ["Compound", "Tested target", "growth (%)"],
 "data": [
  ["CN(C)c1ccc2cc(-c3ccccc3F)c(N)nc2c1", "SK-MEL-5 melanoma", -18.8],
  ["C=C(C)[C@@H]1CC[C@@]2(C(=O)O)CC[C@]3(C)C(CCC4[C@@]5(C)CCC(OS(=O)(=O)c6ccccc6)C(C)(C)C5CC[C@]43C)C12 (stereo not given in full)", "SK-MEL-5 melanoma", 35.6],
  ["O=C(/C=C/C12c3ccccc3C(c3ccccc31)C1C(=O)N(c3ccc(Cl)cc3)C(=O)C12)c1ccccn1 (stereo not given)", "SK-MEL-5 melanoma", -83.5],
  ["CN(CCC(=O)/C(=C\\c1ccccc1)c1ccc(Cl)cc1)Cc1ccccc1", "SK-MEL-5 melanoma", 58.7],
  ["Cc1nc(Nc2cccc(NC(=O)Nc3ccc(Cl)cc3)c2)c2ccccc2n1", "SK-MEL-5 melanoma", 91.5],
  ["CCOC(=O)c1c2c(c(C)n1C)-c1nn(Cc3ccc(OC)cc3)cc1CC2", "SK-MEL-5 melanoma", 69.6],
  ["O=C(CC1Sc2ccccc2NC1=O)NNc1ccc(F)cc1 (stereo not given)", "SK-MEL-5 melanoma", 106],
  ["COc1cc2c(=O)n(CCCn3ccnc3)c3c4cc5c(cc4ccc3c2cc1OC)OCO5", "SK-MEL-5 melanoma", -75.9],
  ["N=c1ccn2c(n1)OC1C(O)C(CO)OC12 (stereo not given)", "SK-MEL-5 melanoma", 45.9],
  ["O=C(Nc1ccccn1)[C@H](O)[C@@H](O)C(=O)N1CCOCC1", "SK-MEL-5 melanoma", 99.3],
  ["O=S(=O)(Nc1ccsc1-c1nc(-c2ccccc2)no1)c1cc(Cl)cc(Cl)c1", "SK-MEL-5 melanoma", 93.5],
  ["CCOc1cccnc1/C=N/NC(N)=S", "SK-MEL-5 melanoma", 55.4],
  ["Nc1ccc2c(S(=O)(=O)O)ccc(S(=O)(=O)O)c2c1", "SK-MEL-5 melanoma", 93.5],
  ["COc1cccc(CCC2CCCN(c3cc(C)nc(N)n3)C2)c1 (stereo not given)", "SK-MEL-5 melanoma", 18.2],
  ["CC(C)N(CCOC(=O)Nc1ccccc1Cl)C(C)C", "SK-MEL-5 melanoma", 97.5],
  ["OC(COc1cccc2ccccc12)CN1CCN(c2ccccc2)CC1 (stereo not given)", "SK-MEL-5 melanoma", 90.4],
  ["Cc1[nH]c(-c2nc3ccccc3[nH]2)c(C)c1C(=O)N1CCc2sccc2C1", "SK-MEL-5 melanoma", 88.8],
  ["COc1cc2ccccc2cc1C(=O)NC(=S)Nc1ccc(-c2nc3ccccc3[nH]2)cc1", "SK-MEL-5 melanoma", 42.5],
  ["COC1(CC[C@@H](C)COC2OC(CO)C(O)C(O)C2O)O[C@H]2C[C@H]3[C@@H]4CC=C5C[C@@H](OC6OC(CO)C(OC7OC(C)C(O)C(O)C7O)C(O)C6OC6OC(C)C(O)C(O)C6O)CC[C@]5(C)[C@H]4CC[C@]3(C)[C@H]2[C@@H]1C (stereo not given in full)", "SK-MEL-5 melanoma", -65.1],
  ["Cc1cn(C2CCCCC2)c(=O)[nH]c1=O", "SK-MEL-5 melanoma", 105]
]}
